Data origin, for the record: patent US20250092065A1

Test system: Target C
Assay: RT-qPCR canonical junction panel assay, Target C mRNA
Format: cell-based
Details: Table 4, read-out: Target C IC50 (decrease in CJ mRNA levels)
pIC50: −log10 of the molar value. Counter-ions that a name gives are not always drawn.
measured endpoint: pIC50

Return value of pIC50 for input CNC(=O)c1nc(-c2cc3cn(C)nc3c(C)c2O)nc2ccc(N3CCC(NC)C3)cc12 (centres unmarked) , no commentary.
6.00 to 7.00

Return value of pIC50 for input Cc1nc2c(C)c(O)c(-c3ccc4nc(N5CC[C@H](NC(C)C)C5)ncc4n3)cc2o1 , no commentary.
> 7.00

Return value of pIC50 for input C[C@@H]1CN(c2ccc3nc(-c4cc5cn(C)nc5cc4O)ncc3c2)C[C@H](C)N1 [Compound 751, hydrochloride] , no commentary.
< 5.00

Return value of pIC50 for input CNC(=O)c1nc(-c2cc3cn(C)nc3c(C)c2O)nc2ccc(N3CC[C@H](NC)C3)cc12 , no commentary.
6.00 to 7.00

Return value of pIC50 for input CN[C@@H]1CCN(c2ccc3nc(-c4cc5cn(C)nc5c(C)c4O)ncc3c2)C1 (single isomer, unassigned) , no commentary.
6.00 to 7.00

Return value of pIC50 for input Cc1nc2c(C)c(O)c(-c3ccc4nc(N5CC[C@@H](NC6CC6)C5)ncc4n3)cc2o1 (single isomer, unassigned) , no commentary.
> 7.00

Return value of pIC50 for input Cc1c(O)c(-c2ncc3nc(C4CCNC4)ccc3n2)cc2cn(C)nc12 (centres unmarked) , no commentary.
< 5.00

Return value of pIC50 for input CNC(=O)c1nc(-c2cc3cn(C)nc3cc2O)nc2ccc(N3C[C@@H](C)N[C@H](C)C3)cc12 (single isomer, unassigned) , no commentary.
5.00 to 6.00

Return value of pIC50 for input Cn1cc2cc(-c3ccc4nc(N5CCC(NC6(CF)CC6)C5)ccc4n3)c(O)c(F)c2n1 (stereo in doubt) [Compound 353] , no commentary.
> 7.00

Return value of pIC50 for input Cn1cc2nc(-c3ccc4nc(N5CCC(NC(C)(C)C)C5)ccc4n3)c(O)cc2n1 (centres unmarked) , no commentary.
6.00 to 7.00

Return value of pIC50 for input Cc1nc2cc(O)c(-c3ccc4nc(N5CC[C@@H](NC6CC6)C5)ncc4n3)cc2o1 (single isomer, unassigned) , no commentary.
6.00 to 7.00

Return value of pIC50 for input Cn1cc2cc(-c3ccc4nc(N5CC[C@@H](NC6CC(F)(F)C6)C5)ccc4n3)c(O)cc2n1 , no commentary.
6.00 to 7.00

Return value of pIC50 for input Cc1c(O)c(-c2ccc3nc(N4CC[C@@H](NC(C)(C)C)C4)ccc3n2)cc2cn(C)nc12 , no commentary.
> 7.00

Return value of pIC50 for input Cc1c(O)c(-c2ccc3nc(N4CCC(NC5COC5)C4)ccc3n2)cc2cn(C)nc12 (centres unmarked) , no commentary.
5.00 to 6.00

###

System: MYB mRNA
Assay: RT-qPCR splicing assay, MYB mRNA canonical (CJ) and alternative (AJ) junction
Assay type: cell-based, human
Conditions: Homo sapiens, RT-qPCR, MYB alternative junction mRNA increase; read-out: MYB AJ (increase in alternative junction mRNA, AC50)
Counter-ions that a name gives are not always drawn.
measured endpoint: AC50

Return value of AC50 for input Cn1cc2cc(-c3ncc4cc(N5CCC(N6CCC6)CC5)ccc4n3)cc(F)c2n1 [Compound 787] , no commentary.
100 to 1000 nM

Return value of AC50 for input C[C@H]1CN(c2ccc3nc(-c4cc(F)c5nncn5c4)ncc3c2)C[C@H](C)N1 (single isomer, unassigned) [Compound 820] , no commentary.
1000 to 10000 nM

Return value of AC50 for input C[C@@H]1CN(c2ccc3nc(-c4cc(F)c5nn(C)c(F)c5c4)ncc3c2)C[C@H](C)N1 [Compound 925] , no commentary.
1000 to 10000 nM

Return value of AC50 for input Cc1nc2c(F)cc(-c3ncc4cc(N5C[C@@H](C)N[C@@H](C)C5)ccc4n3)cn2n1 [Compound 825] , no commentary.
100 to 1000 nM

Return value of AC50 for input Cc1cn2cc(-c3ncc4cc(N5C[C@@H](C)N[C@@H](C)C5)ccc4n3)cc(F)c2n1 [Compound 773] , no commentary.
< 100 nM

Return value of AC50 for input Cc1cn2nc(-c3ccc4cc(N5CCNC6(CC6)C5)cc(F)c4n3)cc(C)c2n1 [Compound 804] , no commentary.
100 to 1000 nM

Return value of AC50 for input C[C@@H]1CN(c2cc(F)c3nc(-c4cc5cn(C)nc5cc4O)ccc3c2)C[C@H](C)N1 [Compound 768, hydrochloride] , no commentary.
100 to 1000 nM

###

Tested on: K562 cells
Experiment: Cell Titer Glo 2.0 cell viability (toxicity) assay, K562
Conditions: 500 cells/well, 72 hours
measured endpoint: Effect of Exemplary Compounds on Cell Viability, K562

compound	reading
CN(C)C1CCN(c2ccc3nc(-c4cc5cn(C)nc5c(F)c4O)ncc3c2)CC1 [Compound 757]	A (A represents <100 nM)
Cc1nc2c(F)c(O)c(-c3ccc4nc(N5CCC(NC(C)C)C5)ccc4n3)cc2o1 (stereo not shown) [Compound 328]	A (A represents <100 nM)

###

Test system: MYB mRNA
Test: RT-qPCR splicing assay, MYB mRNA canonical (CJ) and alternative (AJ) junction
Assay type: cell-based, human
Conditions: Homo sapiens, MYB canonical junction mRNA, RT-qPCR; read-out: MYB CJ (decrease in CJ mRNA levels, IC50)
Hi there, I'd appreciate the recorded IC50 for every entry that follows.

Return value of IC50 for input Cn1cc2cc(-c3ccc4nc(N5CCC(NC(C)(C)C)C5)ncc4n3)c(O)cc2n1 (centres unmarked) , no commentary.
100 to 1000 nM

Return value of IC50 for input Cn1cc2cc(-c3ccc4nc(N5CC[C@@H](NC6CCC6)C5)ccc4n3)c(O)c(F)c2n1 (single isomer, unassigned) , no commentary.
< 100 nM

Return value of IC50 for input CNC(=O)c1nc(-c2cc3cn(C)nc3c(C)c2O)nc2ccc(N3CC[C@H](NC)C3)cc12 , no commentary.
< 100 nM

Return value of IC50 for input Cn1cc2cc(-c3ccc4nc(N5CC[C@@H](NC6CC(F)(F)C6)C5)ccc4n3)c(O)cc2n1 , no commentary.
100 to 1000 nM

Return value of IC50 for input CNC(=O)c1nc(-c2cc3cn(C)nc3c(F)c2O)nc2ccc(N3CC[C@@H](NC)C3)cc12 , no commentary.
< 100 nM

Return value of IC50 for input C[C@H]1C[C@@H](c2ccc3nc(-c4cc5cn(C)nc5cc4O)ccc3n2)CCN1 , no commentary.
< 100 nM

Return value of IC50 for input COc1cc2ccncc2cc1-c1ccc2nc(N3CCC(NC(C)(C)C)C3)ccc2n1 (centres unmarked) , no commentary.
> 10000 nM

Return value of IC50 for input Cc1c(O)c(-c2ccc3nc(N4CC[C@@H](NC5CC5)C4)ccc3n2)cc2cn(C)nc12 , no commentary.
< 100 nM

###

System: MYB mRNA
Experiment: RT-qPCR splicing assay, MYB mRNA canonical (CJ) and alternative (AJ) junction
Assay type: cell-based, human
Conditions: Homo sapiens, RT-qPCR, MYB alternative junction mRNA increase; read-out: MYB AJ (increase in alternative junction mRNA, AC50)
measured endpoint: AC50

Print MYB mRNA AC50 for Cc1nc(-c2cc3cn(C)nc3c(C)c2O)nc2ccc(N3C[C@H](C)N[C@@H](C)C3)cc12 (single isomer, unassigned) .
< 100 nM

Print MYB mRNA AC50 for CCc1nc2cc(O)c(-c3ccc4nc(N5CC[C@@H](NC(C)(C)C)C5)ccc4n3)cc2o1 (single isomer, unassigned) .
1000 to 10000 nM

Print MYB mRNA AC50 for Cn1cc2cc(-c3ncc4cc(N5CC[C@@H](NC(C)(C)C)C5)ccc4n3)c(O)c(F)c2n1 .
100 to 1000 nM

Print MYB mRNA AC50 for Cc1nc(-c2cc(F)c3nn(C)cc3c2)nc2ccc(N3CCC(N4CCC4)CC3)cc12 .
100 to 1000 nM

Print MYB mRNA AC50 for Cc1c(O)c(-c2nc(C3CCC3)c3cc(N4C[C@H](C)N[C@@H](C)C4)ccc3n2)cc2cn(C)nc12 (single isomer, unassigned) .
100 to 1000 nM

Print MYB mRNA AC50 for C[C@H]1CN(c2ccc3nc(-c4cc(F)c5nc(CO)cn5c4)ncc3c2)C[C@H](C)N1 (single isomer, unassigned) .
< 100 nM
